B1: FEM1A (parent)
chain: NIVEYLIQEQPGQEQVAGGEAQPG

# Variants of: B1
# procedure summary: protein stability index of a GFP-peptide fusion (GPS, HEK-293T) (PSI 1-6); higher = more stable;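 note: lentivirally expressed fusions sorted by FACS into six bins by GFP to DsRed ratio, PSI derived from sequencing read proportions per bin multiplied by bin number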
# applied conditions: c terminus: a fixed tail appended
measured property: protein stability index

[[record]]
seq = "NIVEYLPQEQPGQEQVAGGEAQPG [I7P]"
measured_property = "protein stability index"
experimental_value = 5.71

[[record]]
seq = "NIVEYLIQEQPGQEQVAGGEDQPG [A21D]"
measured_property = "protein stability index"
experimental_value = 4.53

[[record]]
seq = "NIVEYLIQEQPSQEQVAGGEAQPG [G12S]"
measured_property = "protein stability index"
experimental_value = 4.65

[[record]]
seq = "NIVEYLIQEQPTQEQVAGGEAQPG [G12T]"
measured_property = "protein stability index"
experimental_value = 3.87

[[record]]
seq = "NIVAYLIQEQPGQEQVAGGEAQPG [E4A]"
measured_property = "protein stability index"
experimental_value = 3.48

[[record]]
seq = "NIVEYLIQDQPGQEQVAGGEAQPG [E9D]"
measured_property = "protein stability index"
experimental_value = 4.49

[[record]]
seq = "NIPEYLIQEQPGQEQVAGGEAQPG [V3P]"
measured_property = "protein stability index"
experimental_value = 5.74

[[record]]
seq = "NIVEYLIQEQPGQEQVAGGEAQPW [G24W]"
measured_property = "protein stability index"
experimental_value = 2.86

[[record]]
seq = "NIVEYLIQENPGQEQVAGGEAQPG [Q10N]"
measured_property = "protein stability index"
experimental_value = 4.27

[[record]]
seq = "NIVEYCIQEQPGQEQVAGGEAQPG [L6C]"
measured_property = "protein stability index"
experimental_value = 5.11

[[record]]
seq = "NIVEYLIQEKPGQEQVAGGEAQPG [Q10K]"
measured_property = "protein stability index"
experimental_value = 4.3

[[record]]
seq = "NIVELLIQEQPGQEQVAGGEAQPG [Y5L]"
measured_property = "protein stability index"
experimental_value = 4.03

[[record]]
seq = "NIVEYLIQEQIGQEQVAGGEAQPG [P11I]"
measured_property = "protein stability index"
experimental_value = 2.65

[[record]]
seq = "NIVEYLSQEQPGQEQVAGGEAQPG [I7S]"
measured_property = "protein stability index"
experimental_value = 4.75

[[record]]
seq = "NIVEYLIQEQPGQFQVAGGEAQPG [E14F]"
measured_property = "protein stability index"
experimental_value = 2.62

[[record]]
seq = "NIVEYLIQEQPGQEQVAEGEAQPG [G18E]"
measured_property = "protein stability index"
experimental_value = 4.9

[[record]]
seq = "NIVEYLIQEQPGQMQVAGGEAQPG [E14M]"
measured_property = "protein stability index"
experimental_value = 3.34

[[record]]
seq = "NIVEYLIQEWPGQEQVAGGEAQPG [Q10W]"
measured_property = "protein stability index"
experimental_value = 2

[[record]]
seq = "NIVEYLIQEHPGQEQVAGGEAQPG [Q10H]"
measured_property = "protein stability index"
experimental_value = 3.88

[[record]]
seq = "NIVEYLIQEQQGQEQVAGGEAQPG [P11Q]"
measured_property = "protein stability index"
experimental_value = 3.69

[[record]]
seq = "NIVEYLIQEQPGQEQVAGTEAQPG [G19T]"
measured_property = "protein stability index"
experimental_value = 4.18

[[record]]
seq = "NIVNYLIQEQPGQEQVAGGEAQPG [E4N]"
measured_property = "protein stability index"
experimental_value = 4.22

[[record]]
seq = "NIVEYLIDEQPGQEQVAGGEAQPG [Q8D]"
measured_property = "protein stability index"
experimental_value = 4.89

[[record]]
seq = "NIVEYLIQEQPGQEQVANGEAQPG [G18N]"
measured_property = "protein stability index"
experimental_value = 4.16

[[record]]
seq = "NDVEYLIQEQPGQEQVAGGEAQPG [I2D]"
measured_property = "protein stability index"
experimental_value = 5.12

[[record]]
seq = "NIVEYLIQEQPGQEQVSGGEAQPG [A17S]"
measured_property = "protein stability index"
experimental_value = 4.72

[[record]]
seq = "NIVEYLIQEQPGQEQVASGEAQPG [G18S]"
measured_property = "protein stability index"
experimental_value = 3.78

[[record]]
seq = "NIVEYLIQEQPGQEQVYGGEAQPG [A17Y]"
measured_property = "protein stability index"
experimental_value = 3.68

[[record]]
seq = "NIWEYLIQEQPGQEQVAGGEAQPG [V3W]"
measured_property = "protein stability index"
experimental_value = 3.67

[[record]]
seq = "NIVEYLIQEQPGQWQVAGGEAQPG [E14W]"
measured_property = "protein stability index"
experimental_value = 2.25

[[record]]
seq = "NIVEYLGQEQPGQEQVAGGEAQPG [I7G]"
measured_property = "protein stability index"
experimental_value = 4.55

[[record]]
seq = "NIVEYLIQEFPGQEQVAGGEAQPG [Q10F]"
measured_property = "protein stability index"
experimental_value = 3.16

[[record]]
seq = "NIVEYSIQEQPGQEQVAGGEAQPG [L6S]"
measured_property = "protein stability index"
experimental_value = 5.45

[[record]]
seq = "NVVEYLIQEQPGQEQVAGGEAQPG [I2V]"
measured_property = "protein stability index"
experimental_value = 5.13

[[record]]
seq = "NIVEYLIQEQPGQCQVAGGEAQPG [E14C]"
measured_property = "protein stability index"
experimental_value = 3.38

[[record]]
seq = "NIVEYLIQEQPGQEQVAGGEAVPG [Q22V]"
measured_property = "protein stability index"
experimental_value = 4.35

[[record]]
seq = "NQVEYLIQEQPGQEQVAGGEAQPG [I2Q]"
measured_property = "protein stability index"
experimental_value = 5.6

[[record]]
seq = "NIVEYLIQEQPGQEQVAGGEFQPG [A21F]"
measured_property = "protein stability index"
experimental_value = 4.41

[[record]]
seq = "NIVEYLIQEQPGEEQVAGGEAQPG [Q13E]"
measured_property = "protein stability index"
experimental_value = 4.79

[[record]]
seq = "NIVEYLIQEQPGQEQVAGGEATPG [Q22T]"
measured_property = "protein stability index"
experimental_value = 3.91

[[record]]
seq = "NIVEYLIQEQPGLEQVAGGEAQPG [Q13L]"
measured_property = "protein stability index"
experimental_value = 3.27

[[record]]
seq = "NIVEYKIQEQPGQEQVAGGEAQPG [L6K]"
measured_property = "protein stability index"
experimental_value = 5.42

[[record]]
seq = "NIVEYLIQEQPKQEQVAGGEAQPG [G12K]"
measured_property = "protein stability index"
experimental_value = 4.19

[[record]]
seq = "NIVEYLIQEQPGQEDVAGGEAQPG [Q15D]"
measured_property = "protein stability index"
experimental_value = 4.08

[[record]]
seq = "NIREYLIQEQPGQEQVAGGEAQPG [V3R]"
measured_property = "protein stability index"
experimental_value = 5.21

[[record]]
seq = "NIVEYLIQEQPGQEQYAGGEAQPG [V16Y]"
measured_property = "protein stability index"
experimental_value = 4.05

[[record]]
seq = "NIVEHLIQEQPGQEQVAGGEAQPG [Y5H]"
measured_property = "protein stability index"
experimental_value = 4.93

[[record]]
seq = "NIFEYLIQEQPGQEQVAGGEAQPG [V3F]"
measured_property = "protein stability index"
experimental_value = 4.21

[[record]]
seq = "NIVEYLIQEQPGQEQVGGGEAQPG [A17G]"
measured_property = "protein stability index"
experimental_value = 4.71

[[record]]
seq = "NIVEYLIQEQPGQEQVAGGEAQPN [G24N]"
measured_property = "protein stability index"
experimental_value = 4.29

[[record]]
seq = "NIVEYLIQEQPNQEQVAGGEAQPG [G12N]"
measured_property = "protein stability index"
experimental_value = 4.5

[[record]]
seq = "NIVEYLIQEQPGQEQVEGGEAQPG [A17E]"
measured_property = "protein stability index"
experimental_value = 4.6

[[record]]
seq = "NIVEYLIQEQPGQEQVAGGPAQPG [E20P]"
measured_property = "protein stability index"
experimental_value = 3.79

[[record]]
seq = "NIVEYLQQEQPGQEQVAGGEAQPG [I7Q]"
measured_property = "protein stability index"
experimental_value = 5.3

[[record]]
seq = "NIVEYLIQEQPGQEQIAGGEAQPG [V16I]"
measured_property = "protein stability index"
experimental_value = 3.86

[[record]]
seq = "NIVSYLIQEQPGQEQVAGGEAQPG [E4S]"
measured_property = "protein stability index"
experimental_value = 3.64

[[record]]
seq = "NIVEYLIQETPGQEQVAGGEAQPG [Q10T]"
measured_property = "protein stability index"
experimental_value = 3.69

[[record]]
seq = "NIVEYLIQEQPGQEQVAPGEAQPG [G18P]"
measured_property = "protein stability index"
experimental_value = 4.3

[[record]]
seq = "NIVEYLIQEQPGQEQVAGNEAQPG [G19N]"
measured_property = "protein stability index"
experimental_value = 4.43

[[record]]
seq = "NIVERLIQEQPGQEQVAGGEAQPG [Y5R]"
measured_property = "protein stability index"
experimental_value = 4.54

[[record]]
seq = "NIVWYLIQEQPGQEQVAGGEAQPG [E4W]"
measured_property = "protein stability index"
experimental_value = 2.52

[[record]]
seq = "NIVEYPIQEQPGQEQVAGGEAQPG [L6P]"
measured_property = "protein stability index"
experimental_value = 5.7

[[record]]
seq = "NIVEYLIQEQPGQEQWAGGEAQPG [V16W]"
measured_property = "protein stability index"
experimental_value = 3.81

[[record]]
seq = "NICEYLIQEQPGQEQVAGGEAQPG [V3C]"
measured_property = "protein stability index"
experimental_value = 5.04

[[record]]
seq = "NIVEYLIQEQPGQEQVVGGEAQPG [A17V]"
measured_property = "protein stability index"
experimental_value = 3.68

[[record]]
seq = "NIVEYLIQEQPGQEQVAGGVAQPG [E20V]"
measured_property = "protein stability index"
experimental_value = 3.49

[[record]]
seq = "NIVEYLIQERPGQEQVAGGEAQPG [Q10R]"
measured_property = "protein stability index"
experimental_value = 4.03

[[record]]
seq = "NIVEVLIQEQPGQEQVAGGEAQPG [Y5V]"
measured_property = "protein stability index"
experimental_value = 4.49

[[record]]
seq = "NIVEYLIQEQPGQEQVAGGEAGPG [Q22G]"
measured_property = "protein stability index"
experimental_value = 4.33

[[record]]
seq = "NIVEYLIQEQPGYEQVAGGEAQPG [Q13Y]"
measured_property = "protein stability index"
experimental_value = 3.72

[[record]]
seq = "NIHEYLIQEQPGQEQVAGGEAQPG [V3H]"
measured_property = "protein stability index"
experimental_value = 5.06

[[record]]
seq = "NIVENLIQEQPGQEQVAGGEAQPG [Y5N]"
measured_property = "protein stability index"
experimental_value = 4.83

[[record]]
seq = "NIVEYYIQEQPGQEQVAGGEAQPG [L6Y]"
measured_property = "protein stability index"
experimental_value = 5.11

[[record]]
seq = "NIVEYLIGEQPGQEQVAGGEAQPG [Q8G]"
measured_property = "protein stability index"
experimental_value = 4.26

[[record]]
seq = "NIVEYLNQEQPGQEQVAGGEAQPG [I7N]"
measured_property = "protein stability index"
experimental_value = 5.3

[[record]]
seq = "NIVEYLIQEQPGQEQVAGGNAQPG [E20N]"
measured_property = "protein stability index"
experimental_value = 3.73

[[record]]
seq = "NIVEYLIQEQPGQVQVAGGEAQPG [E14V]"
measured_property = "protein stability index"
experimental_value = 2.61

[[record]]
seq = "NIVEYLIEEQPGQEQVAGGEAQPG [Q8E]"
measured_property = "protein stability index"
experimental_value = 4.7

[[record]]
seq = "NIVEYWIQEQPGQEQVAGGEAQPG [L6W]"
measured_property = "protein stability index"
experimental_value = 4.44

[[record]]
seq = "NIVEYLIQEQPGQELVAGGEAQPG [Q15L]"
measured_property = "protein stability index"
experimental_value = 3.53

[[record]]
seq = "NIAEYLIQEQPGQEQVAGGEAQPG [V3A]"
measured_property = "protein stability index"
experimental_value = 5.13

[[record]]
seq = "EIVEYLIQEQPGQEQVAGGEAQPG [N1E]"
measured_property = "protein stability index"
experimental_value = 3.85

[[record]]
seq = "YIVEYLIQEQPGQEQVAGGEAQPG [N1Y]"
measured_property = "protein stability index"
experimental_value = 2.52

[[record]]
seq = "NIVEYLIQEQAGQEQVAGGEAQPG [P11A]"
measured_property = "protein stability index"
experimental_value = 3.98

[[record]]
seq = "NIVEYLIQEQTGQEQVAGGEAQPG [P11T]"
measured_property = "protein stability index"
experimental_value = 3.88

[[record]]
seq = "NIVEYLIQEQPGQEQVAGCEAQPG [G19C]"
measured_property = "protein stability index"
experimental_value = 4.06

[[record]]
seq = "NIVEYLIQEQPGQEQVFGGEAQPG [A17F]"
measured_property = "protein stability index"
experimental_value = 3.59

[[record]]
seq = "NIVEYLIQEQPGQEQVAGGLAQPG [E20L]"
measured_property = "protein stability index"
experimental_value = 3.54

[[record]]
seq = "NIVEYLIQEQPGQEQVAGGEAQAG [P23A]"
measured_property = "protein stability index"
experimental_value = 4.93

[[record]]
seq = "NIVEMLIQEQPGQEQVAGGEAQPG [Y5M]"
measured_property = "protein stability index"
experimental_value = 3.95

[[record]]
seq = "NIVEYLIQEQPGNEQVAGGEAQPG [Q13N]"
measured_property = "protein stability index"
experimental_value = 4.42

